- Assayed System: alpha 1A adrenoceptors (Homo sapiens, UniProt P35348)
- Construct: expressed in transfected cells; host or cells: CHO-K1 (clone 13)
- Sequence (P35348 whole entry): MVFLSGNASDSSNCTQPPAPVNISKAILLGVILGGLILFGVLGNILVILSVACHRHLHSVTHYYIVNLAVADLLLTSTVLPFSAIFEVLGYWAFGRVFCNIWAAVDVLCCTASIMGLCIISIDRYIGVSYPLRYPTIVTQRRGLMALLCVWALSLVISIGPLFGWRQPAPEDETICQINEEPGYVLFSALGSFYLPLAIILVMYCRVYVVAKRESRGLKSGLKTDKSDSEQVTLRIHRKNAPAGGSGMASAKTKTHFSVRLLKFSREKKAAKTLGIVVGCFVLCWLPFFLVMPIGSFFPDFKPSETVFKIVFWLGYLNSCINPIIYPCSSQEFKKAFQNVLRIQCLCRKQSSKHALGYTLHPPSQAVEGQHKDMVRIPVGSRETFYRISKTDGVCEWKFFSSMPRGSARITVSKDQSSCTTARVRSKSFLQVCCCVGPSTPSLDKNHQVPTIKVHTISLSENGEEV
- Assay Notes: Functional assay: fluorescent dye (Fluo-3, FLIPR) determination of intracellular calcium in CHO-K1 cells expressing alpha 1A adrenoceptors (clone 13)
- Assay type: cell-based
- Condition Parameters: CHO-K1 cells expressing alpha 1A adrenoceptor (clone 13); agonist; intracellular calcium, FLIPR; read-out: CHO-1A-13 pEC50 (converted)
Value Kind: EC50 (µM)

{"Structure": "CS(=O)(=O)Nc1ccc(CC2=NCCN2)c2ccoc12", "Value Kind": "EC50", "Unit Annotation": "µM", "Recorded Result": 0.302}
{"Structure": "COc1cc(CC2=NCCN2)c(Cl)cc1NS(C)(=O)=O", "Value Kind": "EC50", "Unit Annotation": "µM", "Recorded Result": 0.0759}
{"Structure": "COc1cc(NS(C)(=O)=O)ccc1CC1=NCCN1", "Value Kind": "EC50", "Unit Annotation": "µM", "Recorded Result": 0.347}
{"Structure": "COc1cc(NS(C)(=O)=O)c(OC)cc1CC1=NCCN1", "Value Kind": "EC50", "Unit Annotation": "µM", "Recorded Result": 0.692}
{"Structure": "COc1cc(CC2=NCCN2)ccc1NS(C)(=O)=O", "Value Kind": "EC50", "Unit Annotation": "µM", "Recorded Result": 0.17}
{"Structure": "CCS(=O)(=O)Nc1ccc(CC2=NCCN2)cc1Cl", "Value Kind": "EC50", "Unit Annotation": "µM", "Recorded Result": 0.661}
